For each of the compounds below, state its pest or weed control at 320 g/ha.
System: Veronica persica (VERPE)
assayRemarks: Herbicidal post-emergence action, section E (Table E9)
Type: in vivo
conditionSummary: Veronica persica, 504 h, application rate 320 g/ha, visual assessment ca. 3 weeks after spraying, read-out: post-emergence activity against VERPE in %

[Q] # input compound: CCS(=O)(=O)N1C[S+]([O-])c2cc(C)c(-c3ccccc3C)nc21 (stereo not drawn) ; wanted: its pest or weed control at 320 g/ha
[A] 90%

[Q] Record: CC1(C(=O)N2CSc3cc(Br)c(-c4ccccc4Cl)nc32)CC(Cl)=NO1 (stereo not drawn)
[A] 80%

[Q] Record: CCOCCS(=O)(=O)N1C[S+]([O-])c2cc(C)c(-c3ccccc3F)nc21 (stereo not drawn)
[A] 90%

[Q] Record: Cc1cc2c(nc1-c1ccccc1Cl)NCS2
[A] 80%

[Q] Record: CC(C)C(=O)N1C[S+]([O-])c2cc(Br)c(-c3ccccc3)nc21 (stereo not drawn)
[A] 90%

[Q] Record: Cc1cc2c(nc1-c1ccccc1F)N(C(=O)C1CC1)CS2
[A] 90%

[Q] Record: O=C(C1CCCC1)N1CSc2cc(Br)c(-c3ccccc3F)nc21
[A] 80%

[Q] Record: CCc1ccccc1-c1nc2c(cc1C)[S+]([O-])CN2 (stereo not drawn)
[A] 80%

[Q] Record: CS(=O)(=O)N1C[S+]([O-])c2cc(Br)c(-c3ccccc3Cl)nc21 (stereo not drawn)
[A] 80%

---

Tested on: Triticum aestivum (TRZAS)
assayRemarks: Post-emergence effects on crop plants, section F (Table F2)
Assay type: in vivo
conditionSummary: crop plant damage, application rate 320 g/ha
reportedEndpoint: post-emergence activity against TRZAS in % (%)
Express it in %; write the number only.

[Q] # input molecule: COc1ccccc1-c1nc2c(cc1Br)SCN2B(N)N ; wanted: its post-emergence activity against TRZAS in %
[A] 0

[Q] Record: COC(=O)CCC(=O)N1CSc2cc(Cl)c(-c3ccccc3F)nc21
[A] 0

[Q] Record: COCCOCCOCC(=O)N1CSc2cc(Br)c(-c3cccc(F)c3F)nc21
[A] 0

[Q] Record: Cc1cc2c(nc1-c1ccccc1)N(C(=O)C1(C)CC(Cl)=NO1)CS2 (centres unmarked)
[A] 20

[Q] Record: Cc1cc2c(nc1-c1cccc(C)c1F)NCS2
[A] 20

---

Tested on: Setaria viridis (SETVI)
assayRemarks: Herbicidal post-emergence action, section E (Table E8)
Format: in vivo
conditionSummary: Setaria viridis, 504 h, application rate 320 g/ha, visual assessment ca. 3 weeks after spraying, read-out: post-emergence activity against SETVI in %
reportedEndpoint: pest or weed control at 320 g/ha (%)
Express it in %; write the number only.

[Q] Recall the recorded pest or weed control at 320 g/ha for CCS(=O)(=O)N1CSc2cc(C)c(-c3ccccc3F)nc21 [Example I-060] with Setaria viridis (SETVI) and state it.
[A] 90

[Q] Record: CC(C)C(=O)N1C[S+]([O-])c2cc(Br)c(-c3ccccc3)nc21 (stereo not shown) [Example I-067]
[A] 80

[Q] Record: CCOCCS(=O)(=O)N1C[S+]([O-])c2cc(C)c(-c3ccccc3F)nc21 (stereo not shown) [Example I-127]
[A] 80

[Q] Record: Cc1cc2c(nc1-c1ccccc1Cl)NCS2 [Example I-049]
[A] 80

---

For each of the molecules below, state its pest or weed control at 320 g/ha.
Test system: Digitaria sanguinalis (DIGSA)
assayRemarks: Herbicidal pre-emergence action, section C (Table C12)
Type: in vivo
conditionSummary: Digitaria sanguinalis, pre-emergence, 504 h; application rate 320 g/ha; visual grading after ca. 3 weeks; read-out: pre-emergence activity against DIGSA in %
The reply should read as a number followed by its unit.

[Q] # input molecule: CC(C)C(=O)N1C[S+]([O-])c2cc(Br)c(-c3ccccc3)nc21 (stereo not drawn) ; wanted: its pest or weed control at 320 g/ha
[A] 100%

[Q] Record: CS(=O)(=O)N1C[S+]([O-])c2cc(Br)c(-c3ccccc3Cl)nc21 (stereo not drawn)
[A] 100%

[Q] Record: Clc1ccccc1-c1nc2c(cc1Br)SCN2
[A] 100%

[Q] Record: CCS(=O)(=O)N1C[S+]([O-])c2cc(C)c(-c3ccccc3C)nc21 (stereo not drawn)
[A] 100%

[Q] Record: COC(=O)CCC(=O)N1CSc2cc(Br)c(-c3sccc3Cl)nc21
[A] 90%

[Q] Record: CC1(C(=O)N2CSc3cc(Br)c(-c4ccccc4Cl)nc32)CC(Cl)=NO1 (stereo not drawn)
[A] 90%

---

Tested on: Setaria viridis (SETVI)
assayRemarks: Herbicidal pre-emergence action, section A (Table A8)
Assay type: in vivo
conditionSummary: application rate 320 g/ha
Excerpt: Seeds of mono- and dicotyledonous weed plants were sown in plastic pots (double sowings with one species of mono- and one species of dicotyledonous weed plants per pot), in sandy loam, and covered with soil. […]
reportedEndpoint: pre-emergence activity against SETVI in % (%)
Express it in %; write the number only.

[Q] # input compound: Cc1cccc(F)c1-c1nc2c(cc1Br)SCN2 ; wanted: its pre-emergence activity against SETVI in %
[A] 100

[Q] Record: Cc1cc2c(nc1-c1ccccc1F)N(C(=O)C1(C)CC(Cl)=NO1)CS2 (stereo not drawn)
[A] 100

[Q] Record: Cc1cc2c(nc1-c1cccc(C)c1F)NCS2
[A] 100

[Q] Record: Cc1cc2c(nc1-c1cccc(F)c1F)N(C(=O)C13CCCC1C(Cl)=NO3)CS2 (stereo not drawn)
[A] 100

[Q] Record: CC1(C(=O)N2CSc3cc(Br)c(-c4ccccc4)nc32)CC(Cl)=NO1 (stereo not drawn)
[A] 100

[Q] Record: COC(=O)CCC(=O)N1CSc2cc(C)c(-c3ccc(F)cc3F)nc21
[A] 100

[Q] Record: Cc1cc2c(nc1-c1ccccc1F)N(S(=O)(=O)Cc1ccc(F)cc1)CS2
[A] 100

[Q] Record: COCC1(C(=O)N2CSc3cc(C)c(-c4ccccc4F)nc32)CC(Cl)=NO1 (stereo not drawn)
[A] 100

[Q] Record: Cc1ccccc1-c1nc2c(cc1C)SCN2C(=O)C1(C)CC(Cl)=NO1 (stereo not drawn)
[A] 100

[Q] Record: COC(=O)CCC(=O)N1CSc2cc(Cl)c(-c3ccccc3F)nc21
[A] 100

[Q] Record: Cc1cc2c(nc1-c1ccccc1)N(C(=O)C1(C)CC(Cl)=NO1)CS2 (stereo not drawn)
[A] 100

[Q] Record: COc1ccccc1-c1nc2c(cc1Br)SCN2B(N)N
[A] 100

[Q] Record: COCCOCCOCC(=O)N1CSc2cc(C)c(-c3cccc(F)c3F)nc21
[A] 100

[Q] Record: CC(=O)N1CSc2cc(C)c(-c3cc(F)ccc3F)nc21
[A] 100

[Q] Record: Cc1cc2c(nc1-c1ccccc1F)N(C(=O)C13CCCC1C(Cl)=NO3)CS2 (stereo not drawn)
[A] 100

---

Tested on: Echinochloa crus-galli (ECHCG)
assayRemarks: Herbicidal pre-emergence action, section A (Table A3)
Assay type: in vivo
conditionSummary: application rate 320 g/ha; visual grading after ca. 3 weeks vs untreated controls
Text: Seeds of mono- and dicotyledonous weed plants were sown in plastic pots (double sowings with one species of mono- and one species of dicotyledonous weed plants per pot), in sandy loam, and covered with soil. […]
For each of the compounds below, state its pre-emergence activity against ECHCG in %.
Express it in %; write the number only.

[Q] Recall the recorded pre-emergence activity against ECHCG in % for COC(=O)CS(=O)(=O)N1CSc2cc(C)c(-c3ccccc3F)nc21 with Echinochloa crus-galli (ECHCG) and state it.
[A] 100

[Q] Record: CC1(C(=O)N2CSc3cc(Br)c(-c4ccccc4)nc32)CC(Cl)=NO1 (centres unmarked)
[A] 100

[Q] Record: BN1CSc2cc(Br)c(-c3ccccc3C)nc21
[A] 100

[Q] Record: Cc1cc2c(nc1-c1cccc(F)c1F)N(C(=O)C13CCCC1C(Cl)=NO3)CS2 (centres unmarked)
[A] 90

[Q] Record: Cc1cc2c(nc1-c1ccccc1)N(C(=O)C1(C)CC(Cl)=NO1)CS2 (centres unmarked)
[A] 100

---

Test system: Triticum aestivum (TRZAS)
assayRemarks: Pre-emergence effects on crop plants, section D (Table D2)
Assay type: in vivo
conditionSummary: application rate 320 g/ha; visual grading after ca. 3 weeks
reportedEndpoint: pre-emergence activity against TRZAS in % (crop plant damage) (%)
Express it in %; write the number only.

[Q] # input compound: CCS(=O)(=O)N1CS(=O)(=O)c2cc(C)c(-c3ccccc3F)nc21 ; wanted: its pre-emergence activity against TRZAS in % (crop plant damage)
[A] 0

[Q] Record: Clc1ccccc1-c1nc2c(cc1Br)SCN2
[A] 20

[Q] Record: COc1ccccc1-c1nc2c(cc1Br)SCN2B(N)N
[A] 10

[Q] Record: O=C(c1ccccc1C(F)(F)F)N1CSc2cc(Br)c(-c3ccccc3Cl)nc21
[A] 0

[Q] Record: CCc1ccccc1-c1nc2c(cc1C)[S+]([O-])CN2 (stereo not drawn)
[A] 10

[Q] Record: COC(=O)CCC(=O)N1CSc2cc(Br)c(-c3sccc3Cl)nc21
[A] 0

[Q] Record: O=C(C1CCCC1)N1CSc2cc(Br)c(-c3ccccc3F)nc21
[A] 0

[Q] Record: COCCOCCOCC(=O)N1CSc2cc(Br)c(-c3cccc(F)c3F)nc21
[A] 0

[Q] Record: Cc1cc2c(nc1-c1cccc(C)c1F)NCS2
[A] 10
